assayed.system: human αVβ6 (Homo sapiens, UniProt P06756+P18564)
Sequence (P06756 31-992 limits assumed): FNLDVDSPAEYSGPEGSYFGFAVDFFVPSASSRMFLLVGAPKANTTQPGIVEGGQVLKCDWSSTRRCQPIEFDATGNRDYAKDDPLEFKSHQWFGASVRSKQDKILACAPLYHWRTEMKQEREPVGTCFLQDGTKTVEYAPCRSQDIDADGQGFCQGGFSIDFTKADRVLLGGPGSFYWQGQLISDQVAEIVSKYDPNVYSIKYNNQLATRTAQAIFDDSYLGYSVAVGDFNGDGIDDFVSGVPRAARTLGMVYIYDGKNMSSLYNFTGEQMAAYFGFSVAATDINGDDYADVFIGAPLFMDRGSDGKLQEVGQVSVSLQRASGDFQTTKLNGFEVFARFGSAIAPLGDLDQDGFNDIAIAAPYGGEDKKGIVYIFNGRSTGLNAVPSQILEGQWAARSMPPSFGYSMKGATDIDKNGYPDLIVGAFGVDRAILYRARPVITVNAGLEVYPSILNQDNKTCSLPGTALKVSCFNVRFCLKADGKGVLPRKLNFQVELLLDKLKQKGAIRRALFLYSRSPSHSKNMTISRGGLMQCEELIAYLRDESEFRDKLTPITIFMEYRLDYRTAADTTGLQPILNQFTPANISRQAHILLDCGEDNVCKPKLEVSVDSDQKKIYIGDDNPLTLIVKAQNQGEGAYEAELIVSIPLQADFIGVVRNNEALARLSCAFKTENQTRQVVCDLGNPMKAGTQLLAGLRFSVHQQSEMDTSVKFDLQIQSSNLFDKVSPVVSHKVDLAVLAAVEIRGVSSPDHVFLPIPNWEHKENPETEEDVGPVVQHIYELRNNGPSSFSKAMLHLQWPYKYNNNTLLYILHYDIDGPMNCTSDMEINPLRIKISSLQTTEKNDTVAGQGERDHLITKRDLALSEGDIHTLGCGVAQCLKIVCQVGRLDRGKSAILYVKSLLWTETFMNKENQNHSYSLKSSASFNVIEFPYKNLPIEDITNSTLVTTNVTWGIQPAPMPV
Sequence (P18564 22-707 limits assumed): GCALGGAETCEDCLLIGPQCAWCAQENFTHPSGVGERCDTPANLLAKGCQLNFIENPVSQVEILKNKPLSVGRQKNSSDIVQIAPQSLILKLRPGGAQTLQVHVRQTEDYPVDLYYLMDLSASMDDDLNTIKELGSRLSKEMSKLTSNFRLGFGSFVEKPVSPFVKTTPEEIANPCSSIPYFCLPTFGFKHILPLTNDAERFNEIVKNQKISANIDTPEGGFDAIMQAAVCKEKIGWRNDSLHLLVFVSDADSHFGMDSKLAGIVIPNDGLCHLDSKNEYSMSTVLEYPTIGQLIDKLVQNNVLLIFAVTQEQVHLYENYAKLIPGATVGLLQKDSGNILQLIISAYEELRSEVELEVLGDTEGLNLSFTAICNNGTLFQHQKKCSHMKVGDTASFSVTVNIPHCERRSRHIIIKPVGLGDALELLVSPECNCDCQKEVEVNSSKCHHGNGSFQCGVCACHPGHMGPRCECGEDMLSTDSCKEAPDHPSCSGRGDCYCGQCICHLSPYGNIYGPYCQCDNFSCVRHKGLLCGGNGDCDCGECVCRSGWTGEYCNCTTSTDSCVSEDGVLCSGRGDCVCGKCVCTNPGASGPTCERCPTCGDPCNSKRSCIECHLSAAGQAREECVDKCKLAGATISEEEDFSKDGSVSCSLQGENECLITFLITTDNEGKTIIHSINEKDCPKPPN
experiment.notes: human αVβ6 HTRF binding assay
experimental.parameters: recombinant human αVβ6 integrin, FITC-conjugated fibronectin
readout.type: IC50 (µM)
Quick note: give the figure in µM, leave out the unit.

Worked cases, IC50 given:
molecule	unit.info	IC50
O=C(O)C[C@@H](c1cnc2ccccc2n1)n1ncc2cc(OCCc3ccc4c(n3)NCCC4)ccc21 [Example 17]	µM	0.0042
Cc1nc2c(cc1Cc1ccc3cn([C@@H](CC(=O)O)c4cnc5ccccc5c4)nc3c1)CCCN2 [Example 82]	µM	0.15
O=C(O)C[C@@H](c1cnc2ccccc2c1)n1cc2ccc(CCc3ccc4c(n3)NCCC4)cc2n1 [Example 81]	µM	0.0032

Okay, next one:
Q: Supply IC50 value. Item: O=C(N[C@@H](Cn1ncc2cc(CCCc3ccc4c(n3)NCCC4)ccc21)C(=O)O)OCc1ccccc1 [Example 36]
Ans: 0.077
